- measured-on: T1, human IL-36R extracellular domain expressed with a C-terminal myc-myc-hexahistidine tag (hIL-36R-MMH) (human, UniProt Q9HB29 20-337)
- T1 construct: also called Human IL-36R-MMH; REGN2105
- experiment-notes: SPR Biacore T200, mAb captured on anti-hFc, 37C, PBS-T pH 7.4 running buffer
Listed next: entries and their corresponding 100 nM hIL-36R-MMH Bound (RU).
Give just the number in RU; leave the unit off.

Q: Entry H4H14708P2 (antibody, human IgG4 S228P, kappa, V domains shown, Fully human anti-IL-36R antibody) VH: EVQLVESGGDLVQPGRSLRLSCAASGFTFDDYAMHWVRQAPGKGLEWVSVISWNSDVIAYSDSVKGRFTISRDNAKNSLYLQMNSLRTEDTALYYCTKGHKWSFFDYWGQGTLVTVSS VL: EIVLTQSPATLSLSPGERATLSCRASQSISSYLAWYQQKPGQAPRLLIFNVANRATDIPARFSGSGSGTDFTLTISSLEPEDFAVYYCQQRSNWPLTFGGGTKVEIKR has what 100 nM hIL-36R-MMH Bound (RU)?
Result: 105

Q: Entry H4H14709P (antibody, human IgG4 S228P, kappa, V domains shown, Fully human anti-IL-36R antibody) VH: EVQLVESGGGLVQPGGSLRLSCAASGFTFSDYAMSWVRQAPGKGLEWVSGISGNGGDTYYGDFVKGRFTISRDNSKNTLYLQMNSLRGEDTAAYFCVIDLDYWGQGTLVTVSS VL: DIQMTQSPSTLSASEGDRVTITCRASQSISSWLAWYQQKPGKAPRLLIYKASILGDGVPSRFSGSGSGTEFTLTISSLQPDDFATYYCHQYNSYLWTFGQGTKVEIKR has what 100 nM hIL-36R-MMH Bound (RU)?
Result: 159
